Assay: Toxicokinetics in the 4-week mini-pig toxicity study
Assay type: in vivo
Details: Gottingen, minipig, plasma; Day 28, 450 mg/kg oral, male minipigs
Measure Name: Cmax (ng/mL)
Your answer should be a plain number; it is taken to be in ng/mL.

input: Output Cmax of "Fc1ccc2c3c([nH]c2c1)CCN(c1ccc2oc(N4CCOCC4)nc2c1)C3"
output: 12300

* * *

Test: Toxicokinetics in the 4-week mouse toxicity study
Type: in vivo
Conditions: mouse, plasma; Day 28, 300 mg/kg oral, female CD-1 mice
Measure Name: AUC(0-t) (µg·h/mL)
Your answer should be a plain number; it is taken to be in µg·h/mL.

input: Output AUC(0-t) of Fc1ccc2c3c([nH]c2c1)CCN(c1ccc2oc(N4CCOCC4)nc2c1)C3 [ACI-3024]
output: 320

* * *

Assay: Toxicokinetics in the 4-week mouse toxicity study
Assay type: in vivo
Settings: female, CD1, mouse, plasma, oral; females, high-dose group (1000 mg/kg), delayed
Measure Name: Tmax

input: Output Tmax of "Fc1ccc2c3c([nH]c2c1)CCN(c1ccc2oc(N4CCOCC4)nc2c1)C3"
output: 24 h

* * *

Assay: Toxicokinetics in the 4-week mouse toxicity study
Format: in vivo
Details: both sexes, mouse, plasma; Day 28, 300 mg/kg oral, average M/F CD-1 mice
Measure Name: AUC(0-t)
# answer = value followed by unit

input: Output AUC(0-t) of Fc1ccc2c3c([nH]c2c1)CCN(c1ccc2oc(N4CCOCC4)nc2c1)C3 [ACI-3024]
output: 353 µg·h/mL

* * *

Experiment: Toxicokinetics in the 4-week mini-pig toxicity study
Format: in vivo
Details: Gottingen, minipig, plasma; Day 28, 450 mg/kg oral, male minipigs
Measure Name: AUC(0-t) (µg·h/mL)
Your answer should be a plain number; it is taken to be in µg·h/mL.

input: Output AUC(0-t) of "Fc1ccc2c3c([nH]c2c1)CCN(c1ccc2oc(N4CCOCC4)nc2c1)C3"
output: 233

* * *

Experiment: Toxicokinetics in the 4-week mouse toxicity study
Format: in vivo
Conditions: mouse, plasma; Day 28, 300 mg/kg oral, male CD-1 mice
Measure Name: Tmax (h)
Your answer should be a plain number; it is taken to be in h.

input: Output Tmax of Fc1ccc2c3c([nH]c2c1)CCN(c1ccc2oc(N4CCOCC4)nc2c1)C3 [ACI-3024]
output: 4

* * *

Experiment: Toxicokinetics in the 4-week mouse toxicity study
Assay type: in vivo
Conditions: mouse, plasma; Day 28, 300 mg/kg oral, female CD-1 mice
Measure Name: Cmax (ng/mL)
Your answer should be a plain number; it is taken to be in ng/mL.

input: Output Cmax of "Fc1ccc2c3c([nH]c2c1)CCN(c1ccc2oc(N4CCOCC4)nc2c1)C3"
output: 23400

* * *

Assay: Toxicokinetics in the 4-week mini-pig toxicity study
Assay type: in vivo
Details: Gottingen, minipig, plasma; Day 28, 450 mg/kg oral, female minipigs
Measure Name: Tmax (h)
Your answer should be a plain number; it is taken to be in h.

input: Output Tmax of Fc1ccc2c3c([nH]c2c1)CCN(c1ccc2oc(N4CCOCC4)nc2c1)C3 [ACI-3024]
output: 4

* * *

Experiment: in vivo
Parameters: species or system mini-pig
Conditions: both sexes, Gottingen, minipig, po
Procedure: This study was conducted to evaluate the potential toxicity of ACI-3024 in a non-rodent species when given daily to Gottingen mini-pig for 4 weeks, followed by a 2-week recovery period. Doses tested, 50, 150 and 450 mg/kg were given by p.o. to 3 animals/sex/group daily. The control animals were administered vehicle. The dose volume was 5 mL/kg for all groups. Clinical signs, body weights, food consumption, electrocardiography, ophthalmology and clinical pathology were evaluated. […]
Measure Name: NOAEL at 4 weeks
# answer = value followed by unit

input: Output NOAEL at 4 weeks of "Fc1ccc2c3c([nH]c2c1)CCN(c1ccc2oc(N4CCOCC4)nc2c1)C3"
output: 450 mg/kg
